target: Solute carrier family 2, facilitated glucose transporter member 1 (Homo sapiens) (UniProt P11166); experiment: ST_JUDE_LEISH: Cytotoxicity at 2uM final concentration against transgenic Leishmania Mexicana promastigotes LmGLUT1 that are glucose transport deficient and complemented with the human glucose transporter GLUT1. Activity is measured by DNA content using SYBR green in vitro; assay type: functional
Sequence (P11166 whole entry): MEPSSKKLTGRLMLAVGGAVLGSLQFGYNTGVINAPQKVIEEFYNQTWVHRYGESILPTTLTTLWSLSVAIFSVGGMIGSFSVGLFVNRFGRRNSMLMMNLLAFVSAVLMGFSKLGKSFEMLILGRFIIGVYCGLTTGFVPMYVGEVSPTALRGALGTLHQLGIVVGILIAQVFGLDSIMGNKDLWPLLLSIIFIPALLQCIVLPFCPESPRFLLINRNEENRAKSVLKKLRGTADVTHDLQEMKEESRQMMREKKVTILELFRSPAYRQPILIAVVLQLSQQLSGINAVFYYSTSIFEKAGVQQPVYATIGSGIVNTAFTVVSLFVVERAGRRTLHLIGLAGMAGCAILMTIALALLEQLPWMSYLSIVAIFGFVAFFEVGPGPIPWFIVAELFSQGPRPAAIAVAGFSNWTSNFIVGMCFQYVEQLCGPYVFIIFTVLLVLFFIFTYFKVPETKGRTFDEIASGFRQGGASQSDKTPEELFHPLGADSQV
Quantity: inhibition (%)
One number for each entry, in %.

| Molecule | Readout value |
| --- | --- |
| O=C(Nc1ccc(N2CCC(Nc3ccccn3)CC2)cc1)c1cnc(Cl)c(Cl)c1 | 18 |
| COc1ccc(CC2(c3ccc(F)cc3)N=C(N)N(CCCc3ccc4c(c3)OCO4)C2=O)cc1 (stereo not given) | 4 |
| Cc1cc(Nc2nc(Nc3cccc(Cl)c3)nc3ccccc23)n[nH]1 | 10.5 |

Provide inhibition for all items below, preserving their order.
1. COc1ccc(-c2ccc(NC(=O)c3cccc(C#N)c3)cc2)cc1CN1CCNCC1
2. CCOC(=O)c1c(SCc2cccc(F)c2F)[nH]c2ccccc2c1=O
3. O=C(NCC1CC1)C1CCN(C(c2ccccc2)c2nc3ccccc3s2)CC1 (stereo not given)
4. Cc1csc(-c2nc(NCc3cccnc3)ncc2-c2ccsc2)n1
5. COc1ccc(-c2cccc(NC(=O)c3cccc(C#N)c3)c2)cc1CN1CCC(O)CC1
6. Oc1ccc(Cc2ccccc2)cc1CNC1CCCCC1
7. Cc1cc2cc(/C=C/C(=O)NC3CCC(CCN4CCc5ccc(C#N)cc5CC4)CC3)ccc2[nH]1 (stereo not given)

1: 9.28; 2: 0.37; 3: -0.89; 4: 2.02; 5: 3.79; 6: 1.43; 7: 9.08

* * *

molecular target: Hexose transporter 1 (Plasmodium falciparum); assay: ST_JUDE_LEISH: Cytotoxicity at 2uM final concentration against transgenic Leishmania Mexicana promastigotes LmPfHT that are glucose transport deficient and complemented with the Plasmodium falciparum hexose transporter. Activity is measured by DNA content using SYBR green in vitro; format: functional
Would you mind telling me the reported inhibition of each entry?
Numbers only, in %.

Worked examples, 2 compounds total:
| Compound | inhibition [%] |
| --- | --- |
| Cc1ccc(Nc2nc(N/N=C/c3ccccc3[N+](=O)[O-])nc(Nc3ccc([N+](=O)[O-])cc3)n2)cc1C | 8.51 |
| CC(C)c1cc(Oc2c(I)cc(CCNCc3ccccc3)cc2I)ccc1O | 1.39 |

Give inhibition for all compounds that follow.
1. CCn1ncc2c(NC3CCOCC3)c(CNC(=O)c3ccnn3C)c(C)nc21
2. COC(=O)CCCOc1cc(Cc2cnc(N)nc2N)cc(OC)c1OC
3. O=C(Cc1ccsc1)NCC(c1ccccc1Cl)c1c[nH]c2ccccc12 (centres undefined)
4. O=S(=O)(Nc1ccc(CCN2CCC(N3CCCCC3)CC2)cc1)c1ccccc1C(F)(F)F

1. 2.89
2. 6.32
3. 5.24
4. 13.4

Required: inhibition, one value per compound below.
1. COc1ccc(-c2cccc(NC(=O)c3cccc(F)c3)c2)cc1CN1CCCN(C)CC1
2. N=c1n(CCN2CCCCC2)c2ccccc2n1CC(O)c1cccc(Br)c1 (centres undefined)

1.16
4.03

Please give inhibition, item by item, for the list that follows.
1. COc1ccc(-c2nonc2NC(=O)c2cccc(C)c2)cc1OC
2. CCOc1c(C)cc(C(F)(F)F)cc1CNCCCNc1cc(=O)c2ccccc2[nH]1
3. COc1ccc(-c2cc(-c3ccc(S(C)(=O)=O)cc3)cnc2N)cn1

1. 10.7
2. 5.03
3. 0.74
